Molecular target: T1, OprF protein of Pseudomonas aeruginosa with N-terminal polyhistidine tag, in proteoliposomes (Pseudomonas aeruginosa, UniProt P13794 25-350, limits assumed)
T1 construct: Made by cell-free synthesis (E. coli lysate) in the presence of liposomes; inserted in the liposomal membrane, found oligomerized, in open and closed channel conformations; Genbank AFM37279.1 is printed for OprF in general; The sense primer starts at the ATG of the gene, so the signal peptide may be part of the construct; also called porin OprF; OprF membrane antigen; not shown: N-terminal …
T1 sequence (looked up): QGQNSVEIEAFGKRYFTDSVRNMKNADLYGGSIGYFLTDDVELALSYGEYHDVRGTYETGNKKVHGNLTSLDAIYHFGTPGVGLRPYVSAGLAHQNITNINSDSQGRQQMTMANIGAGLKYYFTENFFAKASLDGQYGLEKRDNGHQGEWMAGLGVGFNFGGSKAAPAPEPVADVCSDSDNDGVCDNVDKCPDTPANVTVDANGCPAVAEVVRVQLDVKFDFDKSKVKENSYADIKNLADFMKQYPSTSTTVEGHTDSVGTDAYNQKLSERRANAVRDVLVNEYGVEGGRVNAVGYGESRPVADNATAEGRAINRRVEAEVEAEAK
Assay: ELISA on coated OprF proteoliposomes, anti-c-myc-peroxidase detection, one site-specific binding fit
Parameter Measured: Kd (nM)
Express it in nM; write the number only.

Qu. Requested read-out: Kd. Entry: scFv fragment G9 (scFv, Macaque scFv, format VH-(G4S)3-VL-6xHis-c-myc) scFv: QVQLEQSGAEVKHPGASVKVSCKASGYSFSTYGMNWVRQAPGQRPEWMGWINADTGKSTYAPGFKERFTFSLDTSVSTAYLTISSLKAEDTAVYYCVRSCRGGVCQLYHWGQGVLITVSSGGGGSGGGGSGGGGSELQMTQSPTSMAVSQGERVTISCTASSSVNTNYLHWYQQKPGFPPRLLVYGTSSLVAGVPARFSGSGSGTSYTLTISNMEAEDAANYYCQQGNTIPLTFGGGTKVEIKHHHHHHEQKLISEEDL
Ans. 295

Qu. May I ask what Kd has been recorded for scFv fragment E7 (scFv, Macaque scFv, format VH-(G4S)3-VL-6xHis-c-myc) scFv: QVQLEQSGAEVKQPGASVKVSCKASGYSFSSYGMNWVRQAPGQRPEWMGWINADTGKSTYAPGFKERFTFSLDTSVSTAYLTISSLKAEDTAVYYCVRSCRGGVCQLYHWGQGVLITVSSGGGGSGGGGSGGGGSDIELTQSPTSIAVSQGERVTISCTASSSVTTGYFHWYQQKPGFPPRLLVYGTSSLPSGVPARFSGSGSGTSYTLTISNMEAEDAAHYYCQQGHTIPLTFGGGTKVEIKHHHHHHEQKLISEEDL ?
Ans. 213

Qu. For the binder scFv fragment F10 (scFv, Macaque scFv, format VH-(G4S)3-VL-6xHis-c-myc) scFv: QVQLEQSGAEVKQPGASVKVSCKASGYSFNTYGMNWVRQAPGQRPEWMGWINADTGKSTYAPGFKERFTFSLDTSVSTAYLTISSLKAEDTAVYFCVRSCRGGVCQLYHWGQGVLVTVSSGGGGSGGGGSGGGGSDIELTQSPTSMAVSQGERVTISCTASSSVSTNYLHWYQQKPGFPPRLLVYRTSSLAPGVPARFSGSGSGTSYTLTISNMEAEDAAHYYCQQGNTIPLTFGGGTKVEIKHHHHHHEQKLISEEDL , what Kd is on record?
Ans. 1490
